- Test system: PC3 (prostate adenocarcinoma)
- method description: MTT antiproliferative assay, PC3
- Assay type: cell-based, human
- condition summary: Homo sapiens, 72 h
measure name: IC50 (µM)
Give a bare numeral; the unit µM is implied.

Example entries begin here.
COc1cc(O)c(C2=N[C@@H](C(N)=O)[C@@H](c3ccc(C)c(F)c3)C2)c(OC)c1 [cis-6m] | 125
Cc1ccc(C2=N[C@@H](C#N)[C@H](c3ccccc3)C2)cc1 (relative stereo) [trans-4k] | 121
COc1ccc(C2=N[C@@H](C#N)[C@@H](c3ccccc3)C2)cc1 (racemic) [cis-4e] | 478
COc1cc(O)c(C2=N[C@@H](C#N)[C@H](c3ccc(C)c(F)c3)C2)c(OC)c1 (racemic) [trans-4m] | 44.3
N#C[C@@H]1N=C(c2ccccc2)C[C@@H]1c1cccnc1 (racemic) [cis-4h] | 1920

# input for lookup
Report IC50, nothing else, for this compound: Cc1ccc(C2=N[C@@H](C#N)[C@@H](c3ccccc3)C2)cc1 (racemic) [cis-4k]
297

* * *

- System: HT-29 (colorectal adenocarcinoma)
- method description: MTT antiproliferative assay, HT-29
- Assay type: cell-based, human
- condition summary: Homo sapiens; HT-29, MTT, 72 h
Kindly apply the following: criterion met if IC50 is less than 60 µM, criterion not met in every other case.

Example entries begin here.
COc1ccc(C2=N[C@@H](C#N)[C@@H](c3ccccc3)C2)cc1 (racemic) [cis-4e] | criterion not met
COc1cc(O)c(C2=N[C@@H](C(N)=O)[C@@H](c3ccc(C)c(F)c3)C2)c(OC)c1 [cis-6m] | criterion not met
N#C[C@@H]1N=C(c2ccccc2)C[C@@H]1c1cccnc1 (racemic) [cis-4h] | criterion not met
Cc1ccc(C2=N[C@@H](C#N)[C@H](c3ccccc3)C2)cc1 (relative stereo) [trans-4k] | criterion not met
COc1cc(O)c(C2=N[C@@H](C#N)[C@H](c3ccc(C)c(F)c3)C2)c(OC)c1 (racemic) [trans-4m] | criterion met

Regarding Cc1ccc(C2=N[C@@H](C#N)[C@@H](c3ccccc3)C2)cc1 (racemic) [cis-4k] , kindly confirm whether its IC50 is beneath 60 µM.
criterion not met
